# conditions: in ethanol, 273.15 K
valueType: solubility (mole fraction)
Please reply with the value in numeric form only.

Return reported solubility (mole fraction); argument: O=Cc1cccc([N+](=O)[O-])c1
0.0358

----------
# conditions: in n-butanol, 275.65 K
valueType: solubility (mole fraction)

Return reported solubility (mole fraction); argument: O=Cc1cccc([N+](=O)[O-])c1
0.0235

----------
# conditions: in n-propanol, 280.65 K
valueType: solubility (mole fraction)
Please reply with the value in numeric form only.

Return reported solubility (mole fraction); argument: O=Cc1cccc([N+](=O)[O-])c1
0.0385

----------
# conditions: in acetone, 278.15 K
valueType: solubility (mole fraction)
Please reply with the value in numeric form only.

Return reported solubility (mole fraction); argument: O=Cc1cccc([N+](=O)[O-])c1
0.206

----------
# conditions: in ethanol, 283.15 K
valueType: solubility (mole fraction)

Return reported solubility (mole fraction); argument: O=Cc1cccc([N+](=O)[O-])c1
0.0637

----------
# conditions: in toluene, 293.15 K
valueType: solubility (mole fraction)
Please reply with the value in numeric form only.

Return reported solubility (mole fraction); argument: O=Cc1cccc([N+](=O)[O-])c1
0.276

----------
# conditions: in acetone, 280.65 K
valueType: solubility (mole fraction)
Please reply with the value in numeric form only.

Return reported solubility (mole fraction); argument: O=Cc1cccc([N+](=O)[O-])c1
0.231

----------
# conditions: in n-butanol, 273.15 K
valueType: solubility (mole fraction)
Please reply with the value in numeric form only.

Return reported solubility (mole fraction); argument: O=Cc1cccc([N+](=O)[O-])c1
0.0206

----------
# conditions: in ethanol, 278.15 K
valueType: solubility (mole fraction)
Please reply with the value in numeric form only.

Return reported solubility (mole fraction); argument: O=Cc1cccc([N+](=O)[O-])c1
0.048

----------
# conditions: in cyclohexane, 295.65 K
valueType: solubility (mole fraction)

Return reported solubility (mole fraction); argument: O=Cc1cccc([N+](=O)[O-])c1
0.00334

----------
# conditions: in ethyl acetate, 293.15 K
valueType: solubility (mole fraction)
Please reply with the value in numeric form only.

Return reported solubility (mole fraction); argument: O=Cc1cccc([N+](=O)[O-])c1
0.348

----------
# conditions: in ethanol, 275.65 K
valueType: solubility (mole fraction)
Please reply with the value in numeric form only.

Return reported solubility (mole fraction); argument: O=Cc1cccc([N+](=O)[O-])c1
0.0416

----------
# conditions: in isopropanol, 275.65 K
valueType: solubility (mole fraction)
Please reply with the value in numeric form only.

Return reported solubility (mole fraction); argument: O=Cc1cccc([N+](=O)[O-])c1
0.00735

----------
# conditions: in cyclohexane, 298.15 K
valueType: solubility (mole fraction)
Please reply with the value in numeric form only.

Return reported solubility (mole fraction); argument: O=Cc1cccc([N+](=O)[O-])c1
0.00394

----------
# conditions: in n-propanol, 285.65 K
valueType: solubility (mole fraction)
Please reply with the value in numeric form only.

Return reported solubility (mole fraction); argument: O=Cc1cccc([N+](=O)[O-])c1
0.0505

----------
# conditions: in n-propanol, 288.15 K
valueType: solubility (mole fraction)
Please reply with the value in numeric form only.

Return reported solubility (mole fraction); argument: O=Cc1cccc([N+](=O)[O-])c1
0.0575

----------
# conditions: in toluene, 285.65 K
valueType: solubility (mole fraction)

Return reported solubility (mole fraction); argument: O=Cc1cccc([N+](=O)[O-])c1
0.188

----------
# conditions: in DMF, 283.15 K
valueType: solubility (mole fraction)
Please reply with the value in numeric form only.

Return reported solubility (mole fraction); argument: O=Cc1cccc([N+](=O)[O-])c1
0.419

----------
# conditions: in n-propanol, 275.65 K
valueType: solubility (mole fraction)
Please reply with the value in numeric form only.

Return reported solubility (mole fraction); argument: O=Cc1cccc([N+](=O)[O-])c1
0.0293

----------
# conditions: in toluene, 275.65 K
valueType: solubility (mole fraction)

Return reported solubility (mole fraction); argument: O=Cc1cccc([N+](=O)[O-])c1
0.11

----------
# conditions: in acetonitrile, 303.15 K
valueType: solubility (mole fraction)
Please reply with the value in numeric form only.

Return reported solubility (mole fraction); argument: O=Cc1cccc([N+](=O)[O-])c1
0.532

----------
# conditions: in cyclohexane, 283.15 K
valueType: solubility (mole fraction)
Please reply with the value in numeric form only.

Return reported solubility (mole fraction); argument: O=Cc1cccc([N+](=O)[O-])c1
0.00147

----------
# conditions: in isopropanol, 295.65 K
valueType: solubility (mole fraction)

Return reported solubility (mole fraction); argument: O=Cc1cccc([N+](=O)[O-])c1
0.0232

----------
# conditions: in n-butanol, 300.65 K
valueType: solubility (mole fraction)
Please reply with the value in numeric form only.

Return reported solubility (mole fraction); argument: O=Cc1cccc([N+](=O)[O-])c1
0.086

Attribution: BigSolDB 2.1
